Study system: Recombinant human Src (Homo sapiens, UniProt P12931)
Construct: made in house; host or cells: baculovirus-insect cell system
Sequence (P12931 whole entry): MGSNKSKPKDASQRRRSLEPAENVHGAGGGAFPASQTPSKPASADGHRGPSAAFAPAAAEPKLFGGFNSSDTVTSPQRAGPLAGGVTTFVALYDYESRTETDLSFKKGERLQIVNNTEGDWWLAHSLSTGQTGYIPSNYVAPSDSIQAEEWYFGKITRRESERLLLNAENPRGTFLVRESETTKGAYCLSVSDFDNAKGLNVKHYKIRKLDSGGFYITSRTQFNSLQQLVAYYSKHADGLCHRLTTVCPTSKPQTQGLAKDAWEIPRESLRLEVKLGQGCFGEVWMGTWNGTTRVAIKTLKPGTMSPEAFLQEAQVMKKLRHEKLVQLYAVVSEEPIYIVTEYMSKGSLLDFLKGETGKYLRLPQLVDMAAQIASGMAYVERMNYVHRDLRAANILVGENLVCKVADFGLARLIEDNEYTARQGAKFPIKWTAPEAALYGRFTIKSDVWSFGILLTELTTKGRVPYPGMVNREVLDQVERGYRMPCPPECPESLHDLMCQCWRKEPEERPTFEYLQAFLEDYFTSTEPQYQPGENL
Experiment summary: Src tyrosine kinase activity, poly E4Y / 32P-ATP phosphorylation assay
Format: biochemical
Recorded conditions: Table 3, Formula II compounds; NI = no inhibition at 100 μg/mL
Protocol: Recombinant human Src was expressed using the baculovirus-insect cell system and purified as published (Budde et al., 1993 and 2000). The tyrosine kinase activity of Src, Csk and FGFr was determined using poly E4Y and ^32P-ATP. […] Poly E4Y is a synthetic peptide whose phosphorylation is measured in this assay by the addition of the radioactively labeled phosphate from the ATP (Budde et al., 1995). […]
Labels assigned by IC50 range: low bracket (below 20 µM), middle bracket (20 µM to below 50 µM), high bracket (50 µM or more)

Class label required: Cc1ccc(S(=O)(=O)Nc2ccc(-n3cnc4ccccc43)cc2NS(=O)(=O)c2ccc(C)cc2)cc1 [Compound 17b]
middle bracket

Class label required: CCc1ccc(S(=O)(=O)Nc2ccc(Oc3ccc(OC)cc3)cc2NS(=O)(=O)c2ccc(CC)cc2)cc1 [Compound 12a]
middle bracket

Class label required: Cc1ccc(S(=O)(=O)Nc2ccc(C(=O)Nc3ccccc3)cc2NS(=O)(=O)c2ccc(C)cc2)cc1 [Compound 22e]
high bracket

Class label required: COc1ccc(Oc2ccc(NS(=O)(=O)c3ccc4ccccc4c3)c(NS(=O)(=O)c3ccc4ccccc4c3)c2)cc1 [Compound 12i]
low bracket

Class label required: Cc1ccc(S(=O)(=O)Nc2ccc(-n3cccn3)cc2NS(=O)(=O)c2ccc(C)cc2)cc1 [Compound 17a]
middle bracket

Class label required: Cc1ccc(S(=O)(=O)Nc2ccc(C(=O)NCc3cccc4ccccc34)cc2NS(=O)(=O)c2ccc(C)cc2)cc1 [Compound 22g]
low bracket

Class label required: Cc1ccc(S(=O)(=O)Nc2ccc(OCc3cccc(Cl)c3)cc2NS(=O)(=O)c2ccc(C)cc2)cc1 [Compound 15c]
middle bracket

Class label required: `Cc1ccc(S(=O)(=O)Nc2ccc(Cl)cc2NS(=O)(=O)c2ccc(C)cc2)cc1`
high bracket

Class label required: COc1ccc(Oc2ccc(NS(=O)(=O)c3ccc(S(C)(=O)=O)cc3)c(NS(=O)(=O)c3ccc(C)cc3)c2)cc1 [Compound 22z]
high bracket

Class label required: COc1ccc(COc2ccc(NS(=O)(=O)c3ccc(C)cc3)c(NS(=O)(=O)c3ccc(C)cc3)c2)cc1 [Compound 15e]
low bracket

Class label required: CCCCS(=O)(=O)Nc1ccc(Oc2ccc(OC)cc2)cc1NS(=O)(=O)CCCC [Compound 12l]
middle bracket

Class label required: COc1ccc(Oc2ccc(NS(=O)(=O)c3ccc([N+](=O)[O-])cc3)c(NS(=O)(=O)c3ccc([N+](=O)[O-])cc3)c2)cc1 [Compound 12r]
low bracket

Class label required: Cc1ccc(S(=O)(=O)Nc2ccc(Sc3ccc(Cl)cc3)cc2NS(=O)(=O)c2ccc(C)cc2)cc1 [Compound 12ff]
low bracket

Class label required: CC(=O)OCCCCCOc1ccc(NS(=O)(=O)c2ccc(C)cc2)c(NS(=O)(=O)c2ccc(C)cc2)c1 [Compound 12ee]
high bracket

This collection of values is drawn from patent US20060004197A1.
